Subject Of Test: Beta-secretase 1 (Homo sapiens, UniProt P56817)
Sequence (P56817 whole entry): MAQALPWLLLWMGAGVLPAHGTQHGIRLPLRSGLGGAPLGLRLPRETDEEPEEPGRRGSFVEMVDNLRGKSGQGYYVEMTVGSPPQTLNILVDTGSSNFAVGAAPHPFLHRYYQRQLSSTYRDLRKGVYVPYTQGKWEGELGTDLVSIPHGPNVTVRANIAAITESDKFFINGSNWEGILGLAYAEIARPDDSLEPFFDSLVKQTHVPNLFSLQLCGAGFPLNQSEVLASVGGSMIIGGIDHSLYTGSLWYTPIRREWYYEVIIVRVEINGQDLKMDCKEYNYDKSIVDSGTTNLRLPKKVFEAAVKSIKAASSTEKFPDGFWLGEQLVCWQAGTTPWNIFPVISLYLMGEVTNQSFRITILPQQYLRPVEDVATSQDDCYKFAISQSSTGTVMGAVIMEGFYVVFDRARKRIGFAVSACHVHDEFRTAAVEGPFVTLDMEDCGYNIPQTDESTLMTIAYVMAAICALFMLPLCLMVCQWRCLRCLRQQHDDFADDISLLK
Protocol Description: Inhibition of BACE1 by HPLC method
// reported IC50 for each item listed

# Compound, Subject Of Test, IC50
data = [
    ("CCCO[C@H]1CN[C@@H]([C@@H](O)[C@H](Cc2cc(F)cc(F)c2)NC(=O)[C@H](CCc2ccccc2)N2CC[C@H](CC(C)C)C2=O)C1", "Beta-secretase 1 (Homo sapiens, UniProt P56817)", "5.7 nM"),
    ("CCCC[C@H]1CCN([C@@H](C)C(=O)N[C@@H](Cc2cc(F)cc(F)c2)[C@H](O)[C@H]2C[C@H](O)CN2)C1=O", "Beta-secretase 1 (Homo sapiens, UniProt P56817)", "96 nM"),
    ("COc1cccc(CNC[C@@H](O)[C@H](Cc2cc(F)cc(F)c2)NC(=O)[C@H](CCc2ccccc2)N2CC[C@H](CC(C)C)C2=O)c1", "Beta-secretase 1 (Homo sapiens, UniProt P56817)", "20 nM"),
    ("CCCC[C@H]1CCN([C@@H](C)C(=O)N[C@@H](Cc2cc(F)cc(F)c2)[C@H](O)[C@H]2C[C@@H](OCCC)CN2)C1=O", "Beta-secretase 1 (Homo sapiens, UniProt P56817)", "87 nM"),
    ("COc1cccc(CNC[C@@H](O)[C@H](Cc2cc(F)cc(F)c2)NC(=O)[C@H](C)N2CC[C@H](C(C)C)C2=O)c1", "Beta-secretase 1 (Homo sapiens, UniProt P56817)", "170 nM"),
    ("COc1cccc(CNC[C@@H](O)[C@H](Cc2cc(F)cc(F)c2)NC(=O)[C@H](C)N2CC[C@@](CC3CC3)(NC(C)=O)C2=O)c1", "Beta-secretase 1 (Homo sapiens, UniProt P56817)", "46 nM"),
    ("COc1cccc(CNC[C@@H](O)[C@H](Cc2cc(F)cc(F)c2)NC(=O)[C@H](C)N2CC[C@H](CC(C)C)C2=O)c1", "Beta-secretase 1 (Homo sapiens, UniProt P56817)", "89 nM"),
    ("CCC(C)[C@@]1(NC(C)=O)CCN([C@@H](CCc2ccccc2)C(=O)N[C@@H](Cc2cc(F)cc(F)c2)[C@H](O)[C@H]2C[C@@H](OCc3cccc(C#N)c3)CN2)C1=O (stereo partly drawn)", "Beta-secretase 1 (Homo sapiens, UniProt P56817)", "3 nM"),
    ("CCCO[C@H]1CN[C@@H]([C@@H](O)[C@H](Cc2cc(F)cc(F)c2)NC(=O)[C@H](CCc2ccccc2)N2CC[C@H](C(C)C)C2=O)C1", "Beta-secretase 1 (Homo sapiens, UniProt P56817)", "21 nM"),
    ("CCC(C)[C@@]1(NC(C)=O)CCN([C@@H](CCc2ccccc2)C(=O)N[C@@H](Cc2cc(F)cc(F)c2)[C@H](O)[C@H]2C[C@H](N)CN2)C1=O (stereo partly drawn)", "Beta-secretase 1 (Homo sapiens, UniProt P56817)", "50 nM"),
    ("CCCC[C@H]1CCN([C@@H](CCc2ccccc2)C(=O)N[C@@H](Cc2cc(F)cc(F)c2)[C@H](O)[C@H]2C[C@@H](O)CN2)C1=O", "Beta-secretase 1 (Homo sapiens, UniProt P56817)", "25 nM"),
    ("CCCO[C@H]1CN[C@@H]([C@@H](O)[C@H](Cc2cc(F)cc(F)c2)NC(=O)[C@H](CCc2ccccc2)N2CC[C@H](COC)C2=O)C1", "Beta-secretase 1 (Homo sapiens, UniProt P56817)", "23 nM"),
    ("COC[C@H]1CCN([C@@H](CCc2ccccc2)C(=O)N[C@@H](Cc2cc(F)cc(F)c2)[C@H](O)CNCc2cccc(OC)c2)C1=O", "Beta-secretase 1 (Homo sapiens, UniProt P56817)", "32 nM"),
]
